B1: CHIT1 (parent)
chain: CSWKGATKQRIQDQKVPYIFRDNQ

Variants of: B1
Experiment: protein stability index of a GFP-peptide fusion (GPS, HEK-293T) (PSI 1-6); higher = more stable;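 note: lentivirally expressed fusions sorted by FACS into six bins by GFP to DsRed ratio, PSI derived from sequencing read proportions per bin multiplied by bin number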
Conditions: c terminus: a fixed tail appended
Given measured protein stability index, output TRUE if it is greater than or equal to 2 and FALSE if not.

The examples below pair each entry with its known result.
Request: Quick check, protein stability index >= 2? `K4L`
Response: FALSE

Request: Is the recorded value of protein stability index equal to or greater than 2 for this variant? `S2I`
Response: FALSE

Request: Threshold query (protein stability index >= 2) on `I11G`
Response: TRUE

Request: Quick check, protein stability index >= 2? `Y18F`
Response: TRUE

Request: Say whether `R21F` shows protein stability index of 2 or more.
Response: TRUE

Continuing:
Request: Hi team, for `S2L` , is the recorded protein stability index at or above 2?
Response: TRUE

Request: Test whether the variant `D13F` records protein stability index of 2 or higher.
Response: FALSE
